Test system: NCI-H460 lung
experiment: NCI-60 one-dose screen, 48 h (100 = growth as untreated, 0 = no growth, -100 = all killed)
conditionLabel: 10 µM unless noted
About 83,000 compounds went through this panel and 20% of them were active in at least one assay; those are over-represented in the sample as a whole. Active and inactive are the calls of the source. How the source made its calls: active means growth percent below 10; inactive means the rest.
Provide the reported growth of each item.

Here are 5 molecules together with their reported answers.
>>> valuereported("C/C(=N\\N=C(/C)c1cccc([N+](=O)[O-])c1)c1cccc([N+](=O)[O-])c1")
"86.4% (inactive)"
>>> valuereported("CCOC(=O)/C(C#N)=C\\c1c[nH]c2ccccc12")
"109% (inactive)"
>>> valuereported("CCc1ccccc1C(=O)N(CC)CC")
"104% (inactive)"
>>> valuereported("O=[N+]([O-])c1c(O)c(CNCCCO)cc(CNCCCO)c1O")
"119% (inactive)"
>>> valuereported("CN(C)c1ccc(/C=C/C(=O)c2ccc(NC(N)=O)cc2)cc1")
"102% (inactive)"

Value sought for every listed molecule: growth.
1. S=C(Sc1ccc(Cl)cc1)Sc1ccc(Cl)cc1
2. CCOC(=O)c1cc(Cl)c(O)c(Cl)c1

Reply:
67.1% (inactive)
108% (inactive)

----------
Provide the reported growth of each item.
Test system: LOX IMVI melanoma
experiment: NCI-60 one-dose screen, 48 h (100 = growth as untreated, 0 = no growth, -100 = all killed)
conditionLabel: 10 µM
The panel holds about 83,000 compounds, 20% with a hit somewhere; the sample as a whole holds those more often.
Numbers only, in %.

Study these solved cases before continuing.
>>> valuereported("c1ccc(-c2ccc3ccccc3c2)cc1")
95.7
>>> valuereported("Cc1ccc(NC(=O)c2ccccc2Cl)cc1")
101
>>> valuereported("COc1ccc(Nc2cc(Cl)ccc2C(=O)O)cn1")
98.1
>>> valuereported("CCNCC(C)(C)O")
101

Below is a list of molecules. For each, state its recorded growth.
1. CCOC(=O)C1(N)CCCCC1
2. OCCc1ccc(Cl)cc1

Reply:
1: 102; 2: 100

Hi! Can you tell me growth for each of these molecules?
1. CCCCOC(=O)c1ccccc1O
2. Oc1ccc2ccccc2c1CN1CCOCC1
3. Cc1[nH]n(-c2ccccc2)c(=O)c1C=NC(=S)C(N)=S

Reply:
[100, 115, 99.7]

Hi! Can you tell me growth for each of these molecules?
1. Cc1c(Cl)cccc1NC(=S)NC(=O)c1ccccc1
2. C/C(=N\N=C(/C)c1cccc([N+](=O)[O-])c1)c1cccc([N+](=O)[O-])c1
3. O=C1C=Cc2ccccc2/C1=C/c1[nH]c(=O)[nH]c1O
4. COC1OC(C(COC(C)=O)OC(C)=O)C(OC(C)=O)C(OC(C)=O)C1OC(C)=O (stereo not drawn)

Reply:
1: 99.3; 2: 91.6; 3: 48.8; 4: 103

----------
Would you mind telling me the reported growth of each entry?
Tested on: NCI-H522 lung
experiment: NCI-60 one-dose screen, 48 h (100 = growth as untreated, 0 = no growth, -100 = all killed)
conditionLabel: 10 µM unless noted
The panel holds about 83,000 compounds, 20% with a hit somewhere; the sample as a whole holds those more often.
Give bare numbers, in %.

// known answers, use as guide
>>> valuereported("Nc1cc(F)ccc1[N+](=O)[O-]")
106
>>> valuereported("Cc1ccc(Cc2ccc(C)cc2)cc1")
95.3

Please give growth for each item listed below.
1. O=C(OCC1CCCO1)c1ccc([N+](=O)[O-])cc1 (stereo not given)
2. COCC(N)=O
3. CCCCCC(=O)OCCC1CCCCC1
4. OCC1OC(n2ccc3c2ncn2ncnc32)C(O)C1O (stereo not given)

Reply:
1: 94.2; 2: 100; 3: 95; 4: 82.7

Your task in this section: give growth for each listed record.
1. O=C(NCc1ccccc1)c1cccc([N+](=O)[O-])c1
2. C#CC(O)c1ccccc1 (stereo not given)
3. CCOc1ccccc1NC(=O)CCl
4. CC1CCC(C)(C)c2ccccc21 (stereo not given)
5. Nc1c(Br)cc(O)c2c1C(=O)c1ccccc1C2=O
6. CN(C)Cc1ccccn1
7. Clc1cccc(Cl)c1C1CSc2ccccc2N=C1c1ccccc1 (stereo not given)

Reply:
[84.1, 102, 56.1, 93.6, 54, 91.9, 63.6]

Field: growth. Fill in for each record below.
1. CC(C)c1ccccc1NC(=O)N1CCC(C(C)C)CC1
2. CC(=O)c1cccc(N(C)S(=O)(=O)c2ccc(C)cc2)c1

Reply:
1. 106
2. 82.9

----------
Test system: SK-MEL-2 melanoma
experiment: NCI-60 one-dose screen, 48 h
conditionLabel: 10 µM unless noted
This is part of a sample that, as a whole, favours compounds with a hit. Of some 83,000 tested, about 20% had one in any assay. Calls of active or inactive are those of the source. Rule for the calls: active = growth percent below 10; inactive = the rest.
# valid calls are True = active, False = inactive; nothing else

Examples with answers:
>>> assignedcategory("Nc1cc2c(cc1Cl)C(=O)c1ccccc1C2=O")
"False"
>>> assignedcategory("Nc1ncnc(Nc2ccc(C(F)(F)F)cc2)n1")
"False"
>>> assignedcategory("CC(C)(C)NCCC(O)c1cc(C(F)(F)F)nc2c(C(F)(F)F)cccc12 (stereo unspecified)")
"False"

Query: Name the outcome recorded for N#Cc1ccc2nc[nH]c2c1 in the assay.
Reply: False

Query: Hey, what did the test say about CCC12OC(COc3ccccc3)CN1CCN2c1ccccc1 (stereo unspecified) ?
Reply: False

Query: Each compound tested received a call. Report the one for Cc1onc(-c2ccccc2Cl)c1C(=O)Cl .
Reply: False

Query: Short answer needed: outcome of this test for Clc1cccc(Cl)c1C1CSc2ccccc2N=C1c1ccccc1 (stereo unspecified) ?
Reply: False

Query: Which outcome was assigned to C=CCS(C)(=O)=O in this test?
Reply: False

Query: Could you kindly confirm the outcome this assay logged for C=C(OC(C)=O)c1ccccc1 ?
Reply: False

Query: Hey, what did the test say about CCC(/C=C\C(C)=O)CC ?
Reply: False

Query: What outcome does the record of this test show for CCOC(=O)CNC(=O)Sc1ccc(C(C)(C)C)cc1 ?
Reply: False

Query: Please let me know the test result on file for c1ccc2[nH]c(Cc3nc4ccccc4[nH]3)nc2c1 .
Reply: False

Query: Record request — test call for CC(c1ccccc1)N1C(=O)CSC1=S (stereo unspecified)
Reply: True

Query: Hello, I am checking results. What call was entered for Oc1ccc2ccccc2c1CN1CCOCC1 ?
Reply: False

Query: Entry CC(=O)NC(O)C(Cl)Cl (stereo unspecified) : call = ?
Reply: False

Query: Status in this test for Cn1c(=O)c2[nH]c(CCCCC(=O)O)nc2n(C)c1=O ?
Reply: False

Query: Outcome? NNC(=O)c1ccccc1N
Reply: False

Query: # outcome recorded in this test, key = COC1(OC)C2(Cl)C(Cl)=C(Cl)C1(Cl)C1COCC12 (stereo unspecified)
Reply: False

Query: Returns: the outcome recorded for O=[N+]([O-])c1c(O)c(CNCCCO)cc(CNCCCO)c1O in this assay.
Reply: False

Query: Test call for this compound, please: Cc1cc(C(=O)NN)c(C#N)c(=O)[nH]1
Reply: False

Query: recorded result category for CN(C)c1ccc(/C=C/C(=O)c2ccc(NC(N)=O)cc2)cc1 in this test
Reply: False

Query: Please indicate how the test categorized O=C(O)Cc1ccccn1 .
Reply: False

Query: Just curious, what result did COc1nc2ccccc2s1 get here?
Reply: False

Query: What did the test return for N#C/C(=C\c1ccc2c(c1)OCO2)c1ccccc1 ?
Reply: False

Query: Lab log entry: C1=NCCc2ccccc21 — outcome as called in the assay?
Reply: False

----------
Tested on: RPMI-8226 leukemia
experiment: NCI-60 one-dose screen, 48 h
conditionLabel: 10 µM unless noted
Compounds without any hit were thinned out: in the full panel of roughly 83,000, 20% have a hit. Activity calls are given as the source filed them. How the source made its calls: active means growth percent below 10; inactive means the rest.
Returns: one label drawn from active, inactive

A selection of reference data follows.
>>> assignedcategory("C/C(=N\\Nc1ccc([N+](=O)[O-])cc1[N+](=O)[O-])c1ccc(Br)cc1")
"inactive"
>>> assignedcategory("COc1cc(OC)c(NC(=O)C(Sc2nc(C)cc(C)c2C#N)c2ccccc2)cc1Cl (stereo not given)")
"inactive"
>>> assignedcategory("COc1cc(C(=O)N2CCN(c3ccccc3)CC2)c2ccccc2n1")
"inactive"
>>> assignedcategory("Cc1cccc(-[n+]2noc(N)n2)c1")
"inactive"
>>> assignedcategory("Cc1ccc(S(N)(=O)=O)cc1Cl")
"inactive"

Query: Dear colleague, could you share the recorded outcome for CC(CC(CCC(=O)O)(c1ccccc1)c1ccccc1)N(C)C (stereo not given) when you have a moment?
Reply: inactive

Query: What was the test verdict on CC(CO)(CO)C(=O)O ?
Reply: inactive

Query: Called result for COCC(N)=O
Reply: inactive

Query: Any idea what this test logged for Nc1cccc2cccc(O)c12 ?
Reply: inactive

These data points were gathered from PubChem BioAssay (NCI).
